B1: ADAMTSL2 (parent)
chain: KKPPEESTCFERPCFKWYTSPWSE

Variants of: B1
Test: protein stability index of a GFP-peptide fusion (GPS, HEK-293T) (PSI 1-6); higher = more stable;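 note: lentivirally expressed fusions sorted by FACS into six bins by GFP to DsRed ratio, PSI derived from sequencing read proportions per bin multiplied by bin number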
Conditions: c terminus: a fixed tail appended
Reported metric: protein stability index
Give a plain numeric answer without units written out.

Problem: Find the measured protein stability index of KKPPEESTCFERGCFKWYTSPWSE and report it.
Result: 2.27

Problem: Find the measured protein stability index of KKPPNESTCFERPCFKWYTSPWSE and report it.
Result: 2.29

Problem: Find the measured protein stability index of KKPPEESTCFERPCFKWGTSPWSE and report it.
Result: 2.99

Problem: Find the measured protein stability index of KKPPEESTQFERPCFKWYTSPWSE and report it.
Result: 3.34

Problem: Find the measured protein stability index of KKPPEESTCFERPCFKRYTSPWSE and report it.
Result: 2.96

Problem: Find the measured protein stability index of KKPPLESTCFERPCFKWYTSPWSE and report it.
Result: 2.33

Problem: Find the measured protein stability index of KKPPEESTCFERPCFKWYTSPGSE and report it.
Result: 3.51

Problem: Find the measured protein stability index of KKPPEESTCFERPCFKWYTSPWDE and report it.
Result: 2.48

Problem: Find the measured protein stability index of KKPPEESTCFERPCFKSYTSPWSE and report it.
Result: 3.33

Problem: Find the measured protein stability index of KKPPEESTCFCRPCFKWYTSPWSE and report it.
Result: 1.49

Problem: Find the measured protein stability index of KKPPEESTRFERPCFKWYTSPWSE and report it.
Result: 2.52

Problem: Find the measured protein stability index of KKPPEESTCFERPWFKWYTSPWSE and report it.
Result: 1.9

Problem: Find the measured protein stability index of KKPPEESTCFERPCLKWYTSPWSE and report it.
Result: 1.61

Problem: Find the measured protein stability index of KKPPEESTCFERPCYKWYTSPWSE and report it.
Result: 2.77

Problem: Find the measured protein stability index of KKPPEESTCFERPCFKWYTSPNSE and report it.
Result: 3.28

Problem: Find the measured protein stability index of KKPPEESTCFERPCFKWYTSPFSE and report it.
Result: 2.98

Problem: Find the measured protein stability index of KKPPEQSTCFERPCFKWYTSPWSE and report it.
Result: 2.06

Problem: Find the measured protein stability index of KKPPEESTCFERPCFKWYTSPWSM and report it.
Result: 1.68

Problem: Find the measured protein stability index of KKPPEESTCFERPCFKWYTSPWSH and report it.
Result: 2.04

Problem: Find the measured protein stability index of KKPPEESTCFERPCSKWYTSPWSE and report it.
Result: 2.6

Problem: Find the measured protein stability index of KKPPEESTCFEKPCFKWYTSPWSE and report it.
Result: 2.5

Problem: Find the measured protein stability index of KKPPEESTCPERPCFKWYTSPWSE and report it.
Result: 3.19

Problem: Find the measured protein stability index of KKPREESTCFERPCFKWYTSPWSE and report it.
Result: 2.49

Problem: Find the measured protein stability index of KKPPEPSTCFERPCFKWYTSPWSE and report it.
Result: 2.05

Problem: Find the measured protein stability index of KKPPVESTCFERPCFKWYTSPWSE and report it.
Result: 2.48

Problem: Find the measured protein stability index of KKPPEESTCFERPCFKWYTSCWSE and report it.
Result: 2.39

Problem: Find the measured protein stability index of KKPPEESTCFERPCDKWYTSPWSE and report it.
Result: 3.26

Problem: Find the measured protein stability index of KKPPEESTCFERPCFKPYTSPWSE and report it.
Result: 3.5

Problem: Find the measured protein stability index of KKPPAESTCFERPCFKWYTSPWSE and report it.
Result: 1.92

Problem: Find the measured protein stability index of KKPPEESTCFERPCFKWYTSSWSE and report it.
Result: 1.87

Problem: Find the measured protein stability index of KKPPEESTYFERPCFKWYTSPWSE and report it.
Result: 2.54

Problem: Find the measured protein stability index of KKSPEESTCFERPCFKWYTSPWSE and report it.
Result: 2.29

Problem: Find the measured protein stability index of KKPPEESTPFERPCFKWYTSPWSE and report it.
Result: 2.7

Problem: Find the measured protein stability index of KKPPEESTCFERPCFKWYGSPWSE and report it.
Result: 2.82

Problem: Find the measured protein stability index of KKPYEESTCFERPCFKWYTSPWSE and report it.
Result: 2.48

Problem: Find the measured protein stability index of KKPPEESTCFERPCFKWYTSPLSE and report it.
Result: 3.07

Problem: Find the measured protein stability index of KKPPEESTCFEIPCFKWYTSPWSE and report it.
Result: 2.03

Problem: Find the measured protein stability index of KKQPEESTCFERPCFKWYTSPWSE and report it.
Result: 2.67

Problem: Find the measured protein stability index of KKPPEESTCFERPCFKWYTMPWSE and report it.
Result: 2.08

Problem: Find the measured protein stability index of KKPPEESTCFERPCFKWYTSPESE and report it.
Result: 4.18

Problem: Find the measured protein stability index of KKPPESSTCFERPCFKWYTSPWSE and report it.
Result: 1.82

Problem: Find the measured protein stability index of KKEPEESTCFERPCFKWYTSPWSE and report it.
Result: 3.04

Problem: Find the measured protein stability index of KKPPEESTCFERPCFKWYTSPWIE and report it.
Result: 2.6

Problem: Find the measured protein stability index of KKPPEESECFERPCFKWYTSPWSE and report it.
Result: 2.69

Problem: Find the measured protein stability index of KKPPEESTNFERPCFKWYTSPWSE and report it.
Result: 2.18

Problem: Find the measured protein stability index of IKPPEESTCFERPCFKWYTSPWSE and report it.
Result: 1.71

Problem: Find the measured protein stability index of KKPPEESTCFERPCFKWYTSPISE and report it.
Result: 3.03

Problem: Find the measured protein stability index of KSPPEESTCFERPCFKWYTSPWSE and report it.
Result: 2.15

Problem: Find the measured protein stability index of KKPPEESTCFERPCFKWYYSPWSE and report it.
Result: 1.84

Problem: Find the measured protein stability index of KKPPEESTCFERPCFKWYTYPWSE and report it.
Result: 2.37
